Could you please report measured pIC50 for the items listed next?
ASSAY TARGET: G1 APOL1 (Homo sapiens, UniProt O14791, I384M/S342G)
Construct: expressed in transfected cells
Sequence (O14791 28-398 S342G/I384M): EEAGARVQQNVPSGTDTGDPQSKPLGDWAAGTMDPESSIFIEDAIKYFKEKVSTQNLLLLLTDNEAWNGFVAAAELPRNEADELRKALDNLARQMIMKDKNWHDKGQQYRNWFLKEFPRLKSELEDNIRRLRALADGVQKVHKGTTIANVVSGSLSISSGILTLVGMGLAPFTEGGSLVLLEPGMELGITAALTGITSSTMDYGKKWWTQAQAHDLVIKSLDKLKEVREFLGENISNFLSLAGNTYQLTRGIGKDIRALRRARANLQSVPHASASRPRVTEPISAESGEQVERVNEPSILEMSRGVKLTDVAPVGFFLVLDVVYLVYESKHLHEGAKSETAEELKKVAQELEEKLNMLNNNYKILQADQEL
TEST NAME: Acute APOL1 Thallium Assay with inducible stable clones of HEK 293 cells
Format: cell-based
ASSAY CONDITIONS: HEK 293 T-Rex inducible stable clone expressing G1 APOL1; read-out: Thallium Assay (IC50)
pIC50: −log10 of the molar value.

// pIC50 value for `NC(=O)C1(NS(=O)(=O)NC[C@H]2C[C@H](c3c(-c4ccc(F)cc4)[nH]c4c(F)cc(F)cc43)C2)CC1` : < 6.00

// pIC50 value for Fc1ccc(-c2[nH]c3c(F)cc(F)cc3c2C2CC(CN[C@@H]3CCOC3)C2)cc1 (some centres unmarked) : < 6.00

// pIC50 value for `Cn1nccc1CC(=O)N[C@H]1C[C@@H](c2c(-c3ccc(F)cc3)[nH]c3c(F)cc(F)cc32)C1` : < 6.00

// pIC50 value for `O=C(NC[C@H]1C[C@@H](c2c(-c3ccc(F)cc3)[nH]c3c(F)cc(F)cc32)C1)c1cnn[nH]1` : < 6.00

// pIC50 value for `CS(=O)(=O)CCC(=O)NC[C@H]1C[C@@H](c2c(-c3ccc(F)cc3)[nH]c3c(F)cc(F)cc32)C1` : < 6.00

// pIC50 value for `NC[C@]1(O)C[C@@H](c2c(-c3ccc(F)cc3)[nH]c3c(F)cc(F)cc32)C1` : 6.00 to 6.60

// pIC50 value for `O=C(Cn1cnnc1)N[C@H]1C[C@@H](c2c(-c3ccc(F)cc3)[nH]c3c(F)cc(F)cc32)C1` : < 6.00

// pIC50 value for CC(=O)OC1CC(c2c(-c3ccc(F)cc3)[nH]c3c(F)cc(F)cc23)C1 (mixture of isomers) : 6.00 to 6.60

// pIC50 value for O=S(=O)(NC[C@H]1C[C@H](c2c(-c3ccc(F)cc3)[nH]c3c(F)cc(F)cc32)C1)NC(CO)C(F)(F)F (some centres unmarked) : < 6.00

// pIC50 value for `O=C1C[C@@H](C(=O)NC[C@H]2C[C@H](c3c(-c4ccc(F)cc4)[nH]c4c(F)cc(F)cc43)C2)N1` : 6.00 to 6.60

// pIC50 value for `CS(=O)(=O)NCC(=O)N[C@H]1C[C@@H](c2c(-c3ccc(F)cc3)[nH]c3c(F)cc(F)cc32)C1` : < 6.00

// pIC50 value for Fc1ccc(-c2[nH]c3c(F)cc(F)cc3c2C2CC(CNCC(F)F)C2)cc1 (centres unmarked) : 6.00 to 6.60

// pIC50 value for `CC(C)(C)OC(=O)NCC(=O)NC[C@H]1C[C@@H](c2c(-c3ccc(F)cc3)[nH]c3c(F)cc(F)cc32)C1` : 6.00 to 6.60

// pIC50 value for `NC(=O)C1(C(=O)N[C@H]2C[C@H](c3c(-c4ccc(F)cc4)[nH]c4c(F)cc(F)cc43)C2)CC1` : 6.00 to 6.60
